Examples of compounds with documented GI50 follow.
# Test system: Hs-578T
# assay explanation: NCI tumour cell line growth inhibition, 48 h
Calls of active or inactive are those of the source. No stated cut-off is given here; in the data, active = GI50 up to about 1.1 µM and inactive = higher.

The examples below pair each entry with its known result.
CCn1cc(C(=O)O)c(=O)c2cc(F)c(N3CCN(CN4C(=O)/C(=N\NC(=O)c5ccncc5)c5cc(Cl)ccc54)CC3)cc21 | 45.2 µM (inactive)
Cn1c(=O)c2c(nc3n2CCCC(=O)N3CCCCl)n(C)c1=O | > 100 µM (inactive)
C[C@H]1[C@H](C)CC[C@]2(C(=O)OC3OC(CO)C(O)C(O)C3O)CC[C@]3(C)C(=CC[C@@H]4[C@@]5(C)C[C@@H](O)[C@@H]6OC(=O)c7cc(O)c(O)c(O)c7-c7c(cc(O)c(O)c7O)C(=O)OC[C@]6(CO)[C@@H]5CC[C@]43C)[C@H]12 (some centres not stated) | > 100 µM (inactive)

Which GI50 reading was recorded for the compound CN(C)/C=C/c1nnc([N+](=O)[O-])s1 ?
14.5 µM (inactive)

Which GI50 reading was recorded for the compound O=C1CCSSCCC(=O)NCCN1 ?
> 100 µM (inactive)

Which GI50 reading was recorded for the compound CN(/N=C/c1ccc(OCc2cccc(COc3ccc(C=O)cc3)n2)cc1)c1cnn(-c2ccc(Cl)cc2Cl)c(=O)c1Cl ?
> 100 µM (inactive)

Which GI50 reading was recorded for the compound CCc1cc2c(c3c1CCCC3)CC1(Cc3ccc(C(=O)OC)cc3C1)C2 (configuration not stated) ?
60.3 µM (inactive)

Which GI50 reading was recorded for the compound CCOC(=O)/C=C(/C(=O)OCC)n1cc(C)c(=O)n(Cc2cn(COCCOC(C)=O)nn2)c1=O ?
26.3 µM (inactive)

Which GI50 reading was recorded for the compound C#C/C=C\CCCC/C=C\C#CC#CCCCC#CC#C[C@H](COS(=O)(=O)O)OS(=O)(=O)O ?
> 100 µM (inactive)

* * *

# System: HOP-62
# assay explanation: NCI tumour cell line growth inhibition, 48 h
The source made the active and inactive calls. No stated cut-off is given here; in the data, active = GI50 up to about 1.1 µM and inactive = higher.
The reply should be one of these categories: Yes for active, No for inactive

Some solved entries appear below for comparison.
c1csc(C(NC2=NCCO2)C2CC2)c1 (stereo unspecified) | No
CCc1cc2c(c3c1CCCC3)CC1(Cc3ccc(C(=O)OC)cc3C1)C2 (stereo unspecified) | No
O=C(O)CC1(C(=O)O)CCCCC1 | No

Assay outcome for CC(=O)NC1=C(OS(=O)(=O)c2ccc(C)cc2)CN(C)C1=O : what was it?
No

Assay outcome for CC(=O)OCC1OC(n2cc([N+](=O)[O-])c(=O)[nH]c2=O)C(OC(C)=O)C(OC(C)=O)C1OC(C)=O (stereo unspecified) : what was it?
No

Assay outcome for CC1=CC(=O)/C(=C/NC(=S)c2ccncc2)C(=O)O1 : what was it?
No

Assay outcome for COc1cc([C@@H]2c3cc4c(cc3[C@@H](NC(=O)c3ccc(C(C)=O)cc3)C3COC(=O)[C@@H]32)OCO4)cc(OC)c1O (stereo partly specified) : what was it?
Yes

Assay outcome for Oc1nc2c(c(-c3cccc(Cl)c3)n1)COC/C2=C\c1cccc(Cl)c1 : what was it?
No

Assay outcome for Brc1ccc2c(C3CN[C@@H](c4c[nH]c5cc(Br)ccc45)CN3)c[nH]c2c1 (stereo partly specified) : what was it?
No

Assay outcome for C[C@H]1[C@H](C)CC[C@]2(C(=O)OC3OC(CO)C(O)C(O)C3O)CC[C@]3(C)C(=CC[C@@H]4[C@@]5(C)C[C@@H](O)[C@@H]6OC(=O)c7cc(O)c(O)c(O)c7-c7c(cc(O)c(O)c7O)C(=O)OC[C@]6(CO)[C@@H]5CC[C@]43C)[C@H]12 (stereo partly specified) : what was it?
No

Assay outcome for COc1ccc(N2C(=O)[C@@H]3[C@@H]4CC(C)CC[C@@H]4c4c([nH]c5ccccc45)[C@@H]3C2=O)cc1 (stereo partly specified) : what was it?
No

The origin of these recorded values is ChEMBL document CHEMBL1201862.
